Please go through the items and note down their luciferase signal in T cell activation, Top (best-fit).
# measured.target: T1, human TIGIT over-expressed on cells (human, UniProt Q495A1 22-244)
# T1 sequence: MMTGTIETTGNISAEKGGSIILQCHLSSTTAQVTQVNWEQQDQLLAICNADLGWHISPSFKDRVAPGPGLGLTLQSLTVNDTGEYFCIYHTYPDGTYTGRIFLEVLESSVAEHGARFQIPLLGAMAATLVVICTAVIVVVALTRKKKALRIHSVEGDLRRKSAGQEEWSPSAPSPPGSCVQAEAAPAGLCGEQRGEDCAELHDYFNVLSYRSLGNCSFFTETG
# experimental.details: cell-based or functional assay
The reply should be a number, written without any unit.

Query: Name the recorded luciferase signal in T cell activation, Top (best-fit) for 100C4E7D11 (antibody, V domains shown, Mouse monoclonal antibody; also called mouse anti-human TIGIT monoclonal antibody 100C4E7D11) VH: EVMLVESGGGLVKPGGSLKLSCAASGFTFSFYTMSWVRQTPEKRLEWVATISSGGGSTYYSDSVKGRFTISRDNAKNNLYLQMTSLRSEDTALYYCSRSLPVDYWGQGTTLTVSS VL: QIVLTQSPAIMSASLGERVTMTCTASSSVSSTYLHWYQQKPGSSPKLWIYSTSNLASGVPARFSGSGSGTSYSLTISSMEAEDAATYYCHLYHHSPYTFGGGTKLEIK .
Result: 117

Query: Which luciferase signal in T cell activation, Top (best-fit) is listed for 83G6H11C12 (antibody, V domains shown, Mouse monoclonal antibody; also called mouse anti-human TIGIT monoclonal antibody 83G6H11C12) VH: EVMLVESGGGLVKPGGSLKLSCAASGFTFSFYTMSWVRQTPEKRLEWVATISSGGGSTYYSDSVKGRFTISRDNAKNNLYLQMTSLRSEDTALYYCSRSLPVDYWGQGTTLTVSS VL: QIVLTQSPAIMSASLGERVTMTCTASSSVSSSYLHWYQQKPGSSPKLWIYSTSNLASGVPARFSGSGSGTSYSLTISSMEAEDAATYYCHLYHHSPYTFGGGTKLEIK ?
Result: 145

Query: For 64G1E9B4 (antibody, V domains shown, Mouse monoclonal antibody; also called mouse anti-human TIGIT monoclonal antibody 64G1E9B4) VH: EVQLQQSGPELVKPGASVKISCKTSGYTFTEHVIHWVKQSHGKSLEWIGGFNPNHDGTIYNQIFRGKATLTVDKSSSTAYMELRSLTSEDSAVYFCTRAAKLLFAMDYWGQGTSVTVSS VL: DIVMTQSHKFMSTSIGDRVSITCKASQHVSNAVVWYQQKPGQSPKLLIYSPSYRFTGVPDRFTGSGSGTDFTFTISSVQAEDLAVYYCQQHYSTPWTFGGGTKLEIK , what is its reported luciferase signal in T cell activation, Top (best-fit)?
Result: 124

Query: Quick one: luciferase signal in T cell activation, Top (best-fit) of 92E9D4B4 (antibody, V domains shown, Mouse monoclonal antibody; also called mouse anti-human TIGIT monoclonal antibody 92E9D4B4) VH: EVMLVESGGGLVKPGGSLKLSCAASGFTFSFYTMSWVRQTPEKRLEWVATISGGGGDTYYPDNVKGRFTISRDNAKNNLYLQMSSLRSEDTALYYCARSLPVDFWGQGTTLTVSS VL: QIVLTQSPAIMSASLGERVTMTCTASSSVSSTYLHWYQQKPGSSPKFWIYSTSNMASGVPARFSGSGSGTSYSLTISSMEAEDAATYYCHYYHRSPYTFGGGTKLEIK ?
Result: 141

Query: Fill in: luciferase signal in T cell activation, Top (best-fit) of 128E3G7F5 (antibody, V domains shown, Mouse monoclonal antibody; also called mouse anti-human TIGIT monoclonal antibody 128E3G7F5) VH: EVLLQQSGPELVKTGASVKISCKASGYSFTAYYMHWVKQSHGKSLEWIGYISCYNGATTYNQKFKGKATFTVDTSSTTAYMQFNSLTSEDSAVYYCARRVYYGYDEALVYWGQGTSVTVSS VL: DIVMTQSPSSLSVSAGEKVTMTCKSSQSLLNSGNQKNYLAWYQQKPGQPPKLLIYGASTRGSGVPDRFTGSGSGTDFTLTISSVQAEDLAVYYCQNDHSYPYTFGGGTKLEIK is ___
Result: 99

Query: Could you share which luciferase signal in T cell activation, Top (best-fit) value was measured for 104G12E12G2 (antibody, V domains shown, Mouse monoclonal antibody; also called mouse anti-human TIGIT monoclonal antibody 104G12E12G2) VH: EVQLQQSGPELVKPGASVKISCKASGYSFTGSYIHWVKQNHVKTLEWIGRINPHNGPTSYNQNFKGKASLTVDLSSSTAYMEVHSLTSEDSAVYYCVRYDGYYGGALDYWGQGTSVTVSS VL: DIQMTQSPSSLSASLGERVSLTCRASQEISGYLSWLQQKPDGTIKRLIYAASTLDSGVPKRFSGSRSGSDYSLTISSLESEDFADYYCLQYASYPYTFGGGTKLEIK ?
Result: 147

Query: Fill in the blank: the reported luciferase signal in T cell activation, Top (best-fit) of 121C2F10B5 (antibody, V domains shown, Mouse monoclonal antibody; also called mouse anti-human TIGIT monoclonal antibody 121C2F10B5) VH: EVQLVESGGDLVKPGGSLKLSCAASGFTFSTYGMSWVRQTPDKRLEWVATISSGGSYTYYPDSVKGRFTISRDNAKNTLYLQMSSLKSEDTAMYYCARQVHYFYAMDYWGQGTSVTVSS VL: DIQMTQSPASLSVSVGETVTITCRASENIYSNLAWYQQKQGKSPQVLVYAATNLADGVPSRFSGSRSGTQYSLKINSLQSEDFGSYYCQHFWDNAYTFGGGTKLEIK is ____.
Result: 153
